normalized growth values by entry
experiment: chemical genetic growth profiling, strain panel (AID 1159580);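 note: tested at 20 µM; growth read once vehicle control cultures reached saturation at 30 °C; 1 = growth at the plate median or of vehicle wells; lower values mean less growth of the strain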
measurement.conditions: S. cerevisiae deletion strains, growth OD, locus YOR061W, strain CKA2, active compounds read low
Screen size: about 5,500 compounds; about 2,000 (36%) were called active. About 18% were inconclusive and are not listed. The list shows a part of the results.
quantity.kind: normalized growth

[
  {
    "compound": "O=c1[nH]cnc2c1ncn2C1O[C@H](CO)[C@@H](O)[C@H]1O (stereo partly drawn)",
    "measured.result": 1.01
  },
  {
    "compound": "CC1=CC2C(C(C)C)CCC(C)(O)C2CC1 (stereo not drawn)",
    "measured.result": 0.966
  },
  {
    "compound": "COc1c2ccoc2cc2oc(C)cc(=O)c12",
    "measured.result": 0.959
  },
  {
    "compound": "CC1=C(O)C(=O)C=C2C1=CC=C1[C@@]2(C)CC[C@@]2(C)[C@@H]3C[C@](C)(C(=O)O)CC[C@]3(C)CC[C@]12C",
    "measured.result": 0.509
  },
  {
    "compound": "NC(=O)N1c2ccccc2C=Cc2ccccc21",
    "measured.result": 1.01
  },
  {
    "compound": "COc1c2occc2c(OC)c2c(=O)cc(C)oc12",
    "measured.result": 1.02
  },
  {
    "compound": "CC[C@H]1OC(=O)[C@H](C)[C@@H](O[C@H]2C[C@@](C)(OC)[C@@H](O)[C@H](C)O2)[C@H](C)[C@@H](O[C@@H]2O[C@H](C)C[C@H](N(C)C)[C@H]2O)[C@](C)(O)C[C@@H](C)[C@@H]2N[C@@H](COCCOC)O[C@H]([C@H]2C)[C@]1(C)O",
    "measured.result": 1.02
  },
  {
    "compound": "CS/C(Nc1cccc(C(F)(F)F)c1)=C(/C#N)S(=O)(=O)c1ccc(Cl)cc1",
    "measured.result": 0.985
  },
  {
    "compound": "CCN(CC)CCNC(=O)c1cc(Cl)c(N)cc1OC",
    "measured.result": 1
  },
  {
    "compound": "CC(=O)Oc1cc2c(c(C)c1OC(C)=O)CC1OC13C2(C)CCC1(C)C2CC(C)(C(=O)O)CCC2(C)CCC13C (stereo not drawn)",
    "measured.result": 1.02
  },
  {
    "compound": "CO[C@H]1C[C@H](O[C@H]2[C@H](C)[C@@H](OC3O[C@H](C)C[C@H](N(C)C)[C@H]3OC(C)=O)[C@@H](C)C[C@]3(CO3)C(=O)[C@H](C)[C@@H](OC(C)=O)[C@@H](C)[C@@H](C)OC(=O)[C@@H]2C)O[C@@H](C)[C@@H]1OC(C)=O (stereo partly drawn)",
    "measured.result": 1.01
  },
  {
    "compound": "COc1ccc2c(=O)ccoc2c1",
    "measured.result": 1.02
  },
  {
    "compound": "O=C(O)c1cc([N+](=O)[O-])ccc1NCCCc1ccccc1",
    "measured.result": 0.972
  },
  {
    "compound": "CN1C(=O)CCS(=O)(=O)C1c1ccc(Cl)cc1 (stereo not drawn)",
    "measured.result": 1.01
  },
  {
    "compound": "CCC1(CC)C(=O)C=CNC1=O",
    "measured.result": 1.01
  },
  {
    "compound": "CC(=O)[C@@]1(O)CCC2C3CCC4=CC(=O)CC[C@]4(C)C3CC[C@@]21C (stereo partly drawn)",
    "measured.result": 0.993
  },
  {
    "compound": "COC(=O)[C@]1(C)CC[C@]2(C)CC[C@]3(C)C4=CC=C5C(=CC(=O)C(O)=C5C)[C@]4(C)CC[C@@]3(C)[C@@H]2C1",
    "measured.result": 0.744
  },
  {
    "compound": "OC(c1cc(C(F)(F)F)nc2c(C(F)(F)F)cccc12)C1CCCCN1 (stereo not drawn)",
    "measured.result": 0.991
  }
]
